The measured values listed here are drawn from paper PMC12287522.

- Test system: human colorectal cancer cell line (HCT116)
- assay text: MTT assay, HCT116 cell line
- Type: cell-based
- condition details: SAR discussion
result type: anticancer action against HCT116 (in words)

>  <compound structure>
O=C(Cn1cc(COc2ncnc3[nH]cnc23)nn1)NCc1ccc(O)cc1

>  <obs value>
moderately inhibited

$$$$
>  <compound structure>
O=C(Cn1cc(COc2ncnc3[nH]cnc23)nn1)Nc1ccc(O)cc1

>  <obs value>
moderately inhibited

$$$$
